measured.target: latrunculin B bound actin (A. castellani actin monomer) (A. castellani)
test.summary: fluorescence polarisation
assay.metric: Kd (nM)

[A] KKDAHAMILEFIRSRPPLKKASDRQLGPPRMCEPS (domain or fragment, modifications not checked) [Spir third WH2 domain with Linker 3 (SC3)]
[B] KKDAHAMILEFIRSRPPLKKA (domain or fragment, modifications not checked) [Spir third WH2 domain (Spir-C, SC)]
[C] WARFWVQVIDELRRGVRLKKSNHERT (domain or fragment, modifications not checked) [Spir first WH2 domain (SA)]
Arrange these binders by their Kd, starting with the largest number. Please express your ranking as an ordered list of the labels.
C, B, A
(C: 1140 nM, B: 210 nM, A: 110 nM)
